tested on: DNA aptamer or structured DNA CTTACGACATGGGATGTGTAGTTAGTGGTCGGATCCGAGTCGTAAG; settings: 10 mM Tris-HCl, pH 7.4

{"SMILES CODE": "C=C[C@H]1CN2CC[C@@H]1C[C@H]2[C@H](O)c1ccnc2ccc(OC)cc12", "binding call": "no binding"}
{"SMILES CODE": "CN1CC[C@]23c4c5ccc(O)c4O[C@H]2[C@@H](O)C=C[C@H]3[C@H]1C5", "binding call": "no binding"}
{"SMILES CODE": "Cn1c(=O)c2c(ncn2C)n(C)c1=O", "binding call": "no binding"}

====

tested on: DNA aptamer or structured DNA GGGACGACGGAGGTGTAGGGTTTAGGTAGTGGTTTGAAGTCGTCCC; conditions: 10 mM Tris-HCl, pH 7.4
QUANTITY NAME: pKd
Expect pKd as a plain number equal to -log10 of the molar concentration.

Request body: readout pKd, system DNA aptamer or structured DNA GGGACGACGGAGGTGTAGGGTTTAGGTAGTGGTTTGAAGTCGTCCC, query CC(C)[C@H](NC(=O)c1nn(Cc2ccc(F)cc2)c2ccccc12)C(N)=O . Return the value.
6.79

====

tested on: DNA aptamer or structured DNA GGGACGACGGGGGGCTTTAGGGTGTAGGAGTGGGGTGAGTCGTCCC; details: 10 mM Tris-HCl, pH 7.4
QUANTITY NAME: Kd (nM)
# number only, unit nM dropped from output

Query: Kd; subject: CC(C)[C@H](NC(=O)c1nn(Cc2ccc(F)cc2)c2ccccc12)C(N)=O
138

====

system: DNA aptamer or structured DNA GGGACGACATGGGATGGAGCTATGCGAGCATGTGGTGTGTCGTCCC; conditions: 10 mM Tris-HCl, pH 7.4
QUANTITY NAME: binding call; further: call rule not given here

{"MOLECULE": "C=CCN1CC[C@]23c4c5ccc(O)c4O[C@H]2C(=O)CC[C@@]3(O)[C@H]1C5", "SYSTEM": "DNA aptamer or structured DNA GGGACGACATGGGATGGAGCTATGCGAGCATGTGGTGTGTCGTCCC", "READING": "no binding"}
{"MOLECULE": "OCC1OC(OC2C(CO)OC(O)C(O)C2O)C(O)C(O)C1O (stereo unspecified)", "SYSTEM": "DNA aptamer or structured DNA GGGACGACATGGGATGGAGCTATGCGAGCATGTGGTGTGTCGTCCC", "READING": "binds"}
{"MOLECULE": "COc1ccc(Cc2nccc3cc(OC)c(OC)cc23)cc1OC", "SYSTEM": "DNA aptamer or structured DNA GGGACGACATGGGATGGAGCTATGCGAGCATGTGGTGTGTCGTCCC", "READING": "no binding"}
{"MOLECULE": "COC(=O)[C@@H]1C2CCC(C[C@@H]1OC(=O)c1ccccc1)N2C (stereo partly specified)", "SYSTEM": "DNA aptamer or structured DNA GGGACGACATGGGATGGAGCTATGCGAGCATGTGGTGTGTCGTCCC", "READING": "no binding"}
{"MOLECULE": "C=C[C@H]1CN2CC[C@@H]1C[C@H]2[C@H](O)c1ccnc2ccc(OC)cc12", "SYSTEM": "DNA aptamer or structured DNA GGGACGACATGGGATGGAGCTATGCGAGCATGTGGTGTGTCGTCCC", "READING": "binds"}

Turning now to a further molecule:
Query: binding call; subject: COc1ccc2c(c1OC)C(=O)O[C@@H]2[C@H]1c2c(cc3c(c2OC)OCO3)CCN1C; further: call rule not given here
no binding
